These entries and their values trace back to the supplement of paper PMC6555819.

Listed sequences paired with reported PBM binding z-score
tested on: FXR:RXRa (NR concentration 270 nM, RXRa partner concentration 90 nM); experiment: PBM binding z-score (relative to random genomic background probes); higher = stronger binding; sequences stand for … in GC…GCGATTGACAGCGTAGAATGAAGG
assay_metric: PBM binding z-score

- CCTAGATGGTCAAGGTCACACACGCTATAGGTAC: 4.6
- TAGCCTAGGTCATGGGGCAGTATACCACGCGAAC: 4.95
- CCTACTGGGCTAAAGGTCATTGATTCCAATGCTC: 4.68
- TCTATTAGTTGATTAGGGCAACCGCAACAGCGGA: 0.86
- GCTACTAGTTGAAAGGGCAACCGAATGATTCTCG: 0.0739
- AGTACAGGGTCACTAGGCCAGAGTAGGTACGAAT: 5.64
- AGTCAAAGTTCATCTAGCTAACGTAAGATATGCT: 6.22
- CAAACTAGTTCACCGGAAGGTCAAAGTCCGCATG: 4.43
- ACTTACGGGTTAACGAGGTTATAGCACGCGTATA: 2.07
